test: BSK_SAg_PBMCCytotoxicity: PBMC Cytotoxicity Assessment in the BioMAP Diversity Plus: SAg Assay (AID 2283093); conditions: primary human HUVEC with PBMC;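 note: PBMC viability measured as Alamar Blue reduction fluorescence at 546/580 nm; fitted both ways against DMSO so a hit may be loss or gain of signal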
Active and inactive are the calls of the source. Rule for the calls: active = hit-call score of the fitted dose curve at least 0.9, where 1 is the maximum; inactive = score below 0.9.
Write down the outcome that applies. Available outcomes: active, inactive

Below, 4 compounds whose answers are already recorded.
>  <Compound>
C=C(C)[C@H]1CC=C(C)C(=O)C1

>  <Assigned Category>
inactive

$$$$
>  <Compound>
CS(=O)(=O)OCCCCOS(C)(=O)=O

>  <Assigned Category>
inactive

$$$$
>  <Compound>
c1ccc(CCc2ccccc2)cc1

>  <Assigned Category>
active

$$$$
>  <Compound>
CN(C)C(=O)Nc1ccc(Oc2ccc(Cl)cc2)cc1

>  <Assigned Category>
inactive

$$$$

Task item: Hey, what did the test say about c1ccc2cc(Nc3ccc(Nc4ccc5ccccc5c4)cc3)ccc2c1 ?
Reply: inactive

Task item: Hey, what did the test say about COc1ccc(OC)c(N=Nc2c(O)ccc3ccccc23)c1 ?
Reply: active

Task item: Hey, what did the test say about CCN(CC)C(=O)N(CC)CC ?
Reply: inactive

Task item: Hey, what did the test say about CCCCCCC(CO)CCCC (centres undefined) ?
Reply: inactive

Task item: Hey, what did the test say about C1=CC2C3C=CC(C3)C2C1 (centres undefined) ?
Reply: inactive

Task item: Hey, what did the test say about CS(=O)(=O)c1ccc(C2=C(c3ccccc3)C(=O)OC2)cc1 ?
Reply: inactive

Task item: Hey, what did the test say about CC=Cc1ccc(OCC)c(O)c1 ?
Reply: inactive

Task item: Hey, what did the test say about CC(=O)Nc1ccc(C(=O)CCl)cc1 ?
Reply: active

Task item: Hey, what did the test say about CC(=O)c1c(C)c([N+](=O)[O-])c(C(C)(C)C)c([N+](=O)[O-])c1C ?
Reply: inactive

Task item: Hey, what did the test say about Clc1cc(Cl)c(-c2c(Cl)c(Cl)cc(Cl)c2Cl)cc1Cl ?
Reply: active

Task item: Hey, what did the test say about O=C1OC2(c3ccccc31)c1ccc(O)c(Br)c1Oc1c2ccc(O)c1Br ?
Reply: inactive

Task item: Hey, what did the test say about C=C(C)C(=O)OCC(CC)(COC(=O)C(=C)C)COC(=O)C(=C)C ?
Reply: inactive

Task item: Hey, what did the test say about O=C1c2ccccc2C(=O)c2c(O)ccc(O)c21 ?
Reply: active

Task item: Hey, what did the test say about c1ccc(Oc2ccccc2)cc1 ?
Reply: inactive

Task item: Hey, what did the test say about O=CN1CCOCC1 ?
Reply: inactive

Task item: Hey, what did the test say about O=C1OC[C@H](Cc2cccc(O)c2)[C@H]1Cc1cccc(O)c1 ?
Reply: inactive

Task item: Hey, what did the test say about CC(C=O)Cc1ccc(C(C)(C)C)cc1 (centres undefined) ?
Reply: active

Task item: Hey, what did the test say about CC(=O)C1(C)CC2=C(CCCC2(C)C)CC1C (centres undefined) ?
Reply: active

* * *

read-out: Interleukin-8 (IL8), CXCL8 (gene 3576); experiment: BSK_LPS_IL8: BioMAP Diversity Plus: LPS Assay for Interleukin-8 (IL8) Biomarker Activity (AID 2283078); conditions: primary human HUVEC with PBMC; actives raise or lower the signal
Calls of active or inactive are those of the source. How the source made its calls: active means hit-call score of the fitted dose curve at least 0.9, where 1 is the maximum; inactive means score below 0.9.
Write down the outcome that applies. Available outcomes: active, inactive

Below, 4 compounds whose answers are already recorded.
>  <Smiles Str>
C=C(C)C(=O)OCCOCCOCCOC(=O)C(=C)C

>  <Assigned Category>
inactive

$$$$
>  <Smiles Str>
COc1cc(Cl)c(OC)cc1N

>  <Assigned Category>
inactive

$$$$
>  <Smiles Str>
CC(C)(C)CC(C)(C)c1ccc(OCCOCC[N+](C)(C)Cc2ccccc2)cc1

>  <Assigned Category>
active

$$$$
>  <Smiles Str>
O=C1OC2(c3ccccc31)c1ccc(O)c(Br)c1Oc1c2ccc(O)c1Br

>  <Assigned Category>
inactive

$$$$

We now examine a further compound.
Task item: Hey, what did the test say about C=C(C)[C@H]1CC=C(C)C(=O)C1 ?
Reply: inactive

* * *

Test: CEETOX_H295R_CORTIC: CeeTox H295R High-throughput Steroidogenesis Assay for Corticosterone (CORTIC) (AID 2283437);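 note: corticosterone secreted into medium quantified by mass spectrometry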;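 for AC50: human H295R adrenal cells prestimulated with forskolin before chemical exposure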
Conditions: actives raise or lower the signal
Procedure: CEETOX_H295R is a cell-based, multiplexed-readout assay that uses H295R, a human adrenal gland cell line, with measurements taken at 48 hours after chemical dosing in a 96-well plate.CEETOX_H295R_CORTIC is one of 23 assay component(s) measured or calculated from the CEETOX_H295R assay. […] This assay endpoint, CEETOX_H295R_CORTIC, was analyzed with bidirectional fitting relative to DMSO as the negative control and baseline of activity. […]
Calls of active or inactive are those of the source. Rule for the calls: active = hit-call score of the fitted dose curve at least 0.9, where 1 is the maximum; inactive = score below 0.9.
Measurement Label: AC50

In the examples that follow, each entry is paired with its recorded AC50.
>  <Molecule>
C=C1CC[C@H](O)C/C1=C/C=C1\CCC[C@]2(C)[C@@H]([C@H](C)/C=C/[C@H](C)C(C)C)CC[C@@H]12

>  <AC50>
inactive

$$$$
>  <Molecule>
CCC(C)c1cc([N+](=O)[O-])cc([N+](=O)[O-])c1OC(=O)OC(C)C (stereo not given)

>  <AC50>
inactive

$$$$
>  <Molecule>
BrCc1cccc(Oc2ccccc2)c1

>  <AC50>
32.7 µM (active)

$$$$
>  <Molecule>
COc1ccc(CCN2CCC(Nc3nc4ccccc4n3Cc3ccc(F)cc3)CC2)cc1

>  <AC50>
1.48 µM (active)

$$$$
>  <Molecule>
Nc1ccc(N)c2c1C(=O)c1ccccc1C2=O

>  <AC50>
inactive

$$$$
>  <Molecule>
CCCCCCCCN1CCCC1=O

>  <AC50>
inactive

$$$$

Task item: Need AC50, item CC(C)(C)CC(C)(C)c1ccc(OCCOCC[N+](C)(C)Cc2ccccc2)cc1
Reply: inactive

Task item: Need AC50, item CC=Cc1ccc(OCC)c(O)c1
Reply: inactive

Task item: Need AC50, item Cc1cc(=O)oc2cc(N(C)C)ccc12
Reply: inactive

Task item: Need AC50, item CCOC(=O)[C@@H](C)Oc1ccc(Oc2nc3ccc(Cl)cc3o2)cc1
Reply: inactive

* * *

assay: ATG_ISRE_CIS: Attagene CIS-FACTORIAL HepG2 Assay for human Interferon Regulatory Factor 1 (IRF1) binding to an Interferon-Stimulated Response Element (ISRE) (AID 2282948); conditions: HepG2 ISRE cis-reporter (Attagene), mRNA transcription readout; actives raise or lower the signal
Calls of active or inactive are those of the source. How the source made its calls: active means hit-call score of the fitted dose curve at least 0.9, where 1 is the maximum; inactive means score below 0.9.
Measurement Label: outcome

In the examples that follow, each entry is paired with its recorded outcome.
>  <Compound>
CC(=O)C(C)O (stereo not drawn)

>  <outcome>
inactive

$$$$
>  <Compound>
CS(=O)(=O)c1ccc(Cl)cc1

>  <outcome>
inactive

$$$$
>  <Compound>
CS(=O)(=O)c1ccc(C2=C(c3ccccc3)C(=O)OC2)cc1

>  <outcome>
inactive

$$$$
>  <Compound>
CCCCCCC(C)(C)S

>  <outcome>
inactive

$$$$
>  <Compound>
CCCC(=O)c1ccccc1

>  <outcome>
inactive

$$$$
>  <Compound>
CCCCCC(=O)CC

>  <outcome>
inactive

$$$$

Task item: Need outcome, item CCCCC1(COC(=O)CCC(=O)O)C(=O)N(c2ccccc2)N(c2ccccc2)C1=O
Reply: inactive

Task item: Need outcome, item CC1(C)O[C@@H]2C[C@H]3[C@@H]4CCC5=CC(=O)C=C[C@]5(C)[C@@]4(F)[C@@H](O)C[C@]3(C)[C@]2(C(=O)CO)O1
Reply: inactive

Task item: Need outcome, item COC(C)(C)CCCC(C)CC=O (stereo not drawn)
Reply: inactive

Task item: Need outcome, item CCOc1ccccc1O
Reply: inactive

Task item: Need outcome, item CC1(C)CCC[C@]2(C)[C@H]3CCO[C@]3(C)CC[C@@H]12
Reply: inactive

Task item: Need outcome, item C1CCCCC1
Reply: inactive

Task item: Need outcome, item C[Si]1(C)O[Si](C)(C)O[Si](C)(C)O1
Reply: inactive

* * *

read-out: Interleukin-8 (IL8), CXCL8 (gene 3576); test: BSK_3C_IL8: BioMAP Diversity Plus: 3C Assay for Interleukin-8 (IL8) Biomarker Activity (AID 2283020); conditions: primary human endothelial cells (HUVEC); actives raise or lower the signal
The source made the active and inactive calls. The calls were made as follows: active = hit-call score of the fitted dose curve at least 0.9, where 1 is the maximum; inactive = score below 0.9.
Write down the outcome that applies. Available outcomes: active, inactive

Task item: Hey, what did the test say about CCCCCCCCCCCCCCCC(=O)OC/C=C(C)/C=C/C=C(C)/C=C/C1=C(C)CCCC1(C)C ?
Reply: active

Task item: Hey, what did the test say about CC(C)(N=C=O)c1cccc(C(C)(C)N=C=O)c1 ?
Reply: inactive

Task item: Hey, what did the test say about IC(I)I ?
Reply: inactive

Task item: Hey, what did the test say about Cc1cc(CCC(=O)OCCOCCOCCOC(=O)CCc2cc(C)c(O)c(C(C)(C)C)c2)cc(C(C)(C)C)c1O ?
Reply: active

Task item: Hey, what did the test say about CC(=O)C1(C)CC2=C(CCCC2(C)C)CC1C (stereo not given) ?
Reply: active

Task item: Hey, what did the test say about Oc1c(Cl)cc(Cl)c(Cl)c1Cc1c(O)c(Cl)cc(Cl)c1Cl ?
Reply: active

Task item: Hey, what did the test say about Clc1cc(Cl)c(-c2c(Cl)c(Cl)cc(Cl)c2Cl)cc1Cl ?
Reply: active

Task item: Hey, what did the test say about O=C1c2ccccc2C(=O)c2c(O)ccc(O)c21 ?
Reply: active

Task item: Hey, what did the test say about CCN(CC)C(=O)N(CC)CC ?
Reply: inactive

Task item: Hey, what did the test say about O=C1OC[C@H](Cc2cccc(O)c2)[C@H]1Cc1cccc(O)c1 ?
Reply: inactive
